Experiment: AUC in rat at 3.2 mg/kg, po
Type: ADME, organism-based
Set-up: dose 3.2 mg/kg, route oral
Details: plasma
reported_metric: AUC (ng·h/mL)
// return numeric value only (unit: ng·h/mL, not printed)

So, `CC(C)n1nc(-c2cnc(N)nc2-c2ccccc2)ccc1=O` ? Its AUC was 1790

* * *

Experiment: Half life in chimeric mouse transplanted with rat hepatocytes at 3 mg/kg, iv
Type: ADME, organism-based, Hepatocyte
Parameters: dose 3 mg/kg, route intravenous
reported_metric: half-life (min)
// return numeric value only (unit: min, not printed)

So, `CC(C)n1nc(-c2cnc(N)nc2-c2ccccc2)ccc1=O` ? Its half-life was 48

* * *

Assay: Total clearance in rat at 3 mg/kg, iv
Format: ADME, organism-based
Parameters: dose 3 mg/kg, route intravenous
Conditions: in vivo
reported_metric: clearance
In your response, put the unit directly after the numeric value.

So, `CC(C)n1nc(-c2cnc(N)nc2-c2ccccc2)ccc1=O` ? Its clearance was 10.8 mL/min/kg
